Reference source for all entries: paper PMC13070491

- TEST: Plasma pharmacokinetic parameters (LC-MS/MS)
- STUDY CONDITIONS: human, plasma, oral, 50 mg, Cmax, total everolimus plasma; mean

MOLECULE: CO[C@H]1C[C@@H]2CC[C@@H](C)[C@@](O)(O2)C(=O)C(=O)N2CCCC[C@H]2C(=O)O[C@H]([C@H](C)C[C@@H]2CC[C@@H](OCCO)[C@H](OC)C2)CC(=O)[C@H](C)/C=C(\C)[C@@H](O)[C@@H](OC)C(=O)[C@H](C)C[C@H](C)/C=C/C=C/C=C/1C [Everolimus, everolimus]
UNIT ABBREV: nM
Cmax: 140

###

- TEST: Plasma pharmacokinetic parameters (LC-MS/MS)
- STUDY CONDITIONS: human, plasma, oral, 70 mg, AUClast, total everolimus plasma; individual patients

COMPOUND SMILES: CO[C@H]1C[C@@H]2CC[C@@H](C)[C@@](O)(O2)C(=O)C(=O)N2CCCC[C@H]2C(=O)O[C@H]([C@H](C)C[C@@H]2CC[C@@H](OCCO)[C@H](OC)C2)CC(=O)[C@H](C)/C=C(\C)[C@@H](O)[C@@H](OC)C(=O)[C@H](C)C[C@H](C)/C=C/C=C/C=C/1C
AUC(0-t) / µM·h: 1.24

###

- TEST: CNS penetration: total and unbound drug concentrations in tumor regions, CSF and plasma (LC-MS/MS, equilibrium dialysis)
- STUDY CONDITIONS: human, non-enhancing tumor, oral, Total everolimus, MED, 50 mg single dose
ENDPOINT NAME: concentration at 5 days (nM)

COMPOUND SMILES: CO[C@H]1C[C@@H]2CC[C@@H](C)[C@@](O)(O2)C(=O)C(=O)N2CCCC[C@H]2C(=O)O[C@H]([C@H](C)C[C@@H]2CC[C@@H](OCCO)[C@H](OC)C2)CC(=O)[C@H](C)/C=C(\C)[C@@H](O)[C@@H](OC)C(=O)[C@H](C)C[C@H](C)/C=C/C=C/C=C/1C
UNIT ABBREV: nM
VALUE MEASURED: 15.7

###

- TEST: Plasma pharmacokinetic parameters (LC-MS/MS)
- STUDY CONDITIONS: human, plasma, oral, 400 mg, Unbound Ribociclib Tmax, Mean
- Method: Pharmacokinetic evaluation was conducted as previously described[8] using a validated liquid chromatography with tandem mass spectrometry (LC-MS/MS) method.[16] […] CSF samples were intraoperatively collected.

COMPOUND SMILES: CN(C)C(=O)c1cc2cnc(Nc3ccc(N4CCNCC4)cn3)nc2n1C1CCCC1
Tmax: 2.65 h

###

- TEST: CNS penetration: total and unbound drug concentrations in tumor regions, CSF and plasma (LC-MS/MS, equilibrium dialysis)
- STUDY CONDITIONS: human, non-enhancing tumor, oral, Total everolimus, MAX, 5 mg QD 5 days
ENDPOINT NAME: concentration at 5 days

COMPOUND SMILES: CO[C@H]1C[C@@H]2CC[C@@H](C)[C@@](O)(O2)C(=O)C(=O)N2CCCC[C@H]2C(=O)O[C@H]([C@H](C)C[C@@H]2CC[C@@H](OCCO)[C@H](OC)C2)CC(=O)[C@H](C)/C=C(\C)[C@@H](O)[C@@H](OC)C(=O)[C@H](C)C[C@H](C)/C=C/C=C/C=C/1C
ENDPOINT NAME: concentration at 5 days
VALUE MEASURED: 20.2 nM

###

- TEST: CNS penetration: total and unbound drug concentrations in tumor regions, CSF and plasma (LC-MS/MS, equilibrium dialysis)
- STUDY CONDITIONS: human, non-enhancing tumor / plasma, oral, 600 mg

COMPOUND: CN(C)C(=O)c1cc2cnc(Nc3ccc(N4CCNCC4)cn3)nc2n1C1CCCC1 [Ribociclib, ribociclib]
Kp uu at 120 h: 3.78

###

- TEST: CNS penetration: total and unbound drug concentrations in tumor regions, CSF and plasma (LC-MS/MS, equilibrium dialysis)
- STUDY CONDITIONS: human, non-enhancing tumor, oral, Total everolimus, MED, 2.5 mg QD 5 days

COMPOUND: CO[C@H]1C[C@@H]2CC[C@@H](C)[C@@](O)(O2)C(=O)C(=O)N2CCCC[C@H]2C(=O)O[C@H]([C@H](C)C[C@@H]2CC[C@@H](OCCO)[C@H](OC)C2)CC(=O)[C@H](C)/C=C(\C)[C@@H](O)[C@@H](OC)C(=O)[C@H](C)C[C@H](C)/C=C/C=C/C=C/1C [Everolimus, everolimus]
concentration at 5 days (nM): 5.28

###

- TEST: CNS penetration: total and unbound drug concentrations in tumor regions, CSF and plasma (LC-MS/MS, equilibrium dialysis)
- STUDY CONDITIONS: human, non-enhancing tumor, po, unbound drug concentration in the non-enhancing tumor regions, range, ribociclib 400 mg daily oral, 5 days

COMPOUND SMILES: CN(C)C(=O)c1cc2cnc(Nc3ccc(N4CCNCC4)cn3)nc2n1C1CCCC1
concentration at 5 days: 65 to 1770 nM

###

- TEST: CNS penetration: total and unbound drug concentrations in tumor regions, CSF and plasma (LC-MS/MS, equilibrium dialysis)
- STUDY CONDITIONS: human, CSF / plasma, oral, 400 mg

MOLECULE: CN(C)C(=O)c1cc2cnc(Nc3ccc(N4CCNCC4)cn3)nc2n1C1CCCC1 [Ribociclib, ribociclib]
Kp at 120 h: 0.25

###

- TEST: Plasma pharmacokinetic parameters (LC-MS/MS)
- STUDY CONDITIONS: human, plasma, oral, 70 mg, T1/2, total everolimus plasma; individual patients

COMPOUND SMILES: CO[C@H]1C[C@@H]2CC[C@@H](C)[C@@](O)(O2)C(=O)C(=O)N2CCCC[C@H]2C(=O)O[C@H]([C@H](C)C[C@@H]2CC[C@@H](OCCO)[C@H](OC)C2)CC(=O)[C@H](C)/C=C(\C)[C@@H](O)[C@@H](OC)C(=O)[C@H](C)C[C@H](C)/C=C/C=C/C=C/1C
UNIT ABBREV: min
half-life: 1120

###

- TEST: CNS penetration: total and unbound drug concentrations in tumor regions, CSF and plasma (LC-MS/MS, equilibrium dialysis)
- STUDY CONDITIONS: human, CSF, oral, Unbound Ribociclib concentration, Minimum, 600 mg QD 5 days
ENDPOINT NAME: concentration at 5 days

COMPOUND SMILES: CN(C)C(=O)c1cc2cnc(Nc3ccc(N4CCNCC4)cn3)nc2n1C1CCCC1
VALUE MEASURED: 21 nM

###

- TEST: Plasma pharmacokinetic parameters (LC-MS/MS)
- STUDY CONDITIONS: human, plasma, oral, 50 mg, Cmax, total everolimus plasma; individual patients

COMPOUND SMILES: CO[C@H]1C[C@@H]2CC[C@@H](C)[C@@](O)(O2)C(=O)C(=O)N2CCCC[C@H]2C(=O)O[C@H]([C@H](C)C[C@@H]2CC[C@@H](OCCO)[C@H](OC)C2)CC(=O)[C@H](C)/C=C(\C)[C@@H](O)[C@@H](OC)C(=O)[C@H](C)C[C@H](C)/C=C/C=C/C=C/1C
Cmax / nM: 110

###

- TEST: Plasma pharmacokinetic parameters (LC-MS/MS)
- STUDY CONDITIONS: human, plasma, oral, 10 mg, Tmax, total everolimus plasma; mean

COMPOUND SMILES: CO[C@H]1C[C@@H]2CC[C@@H](C)[C@@](O)(O2)C(=O)C(=O)N2CCCC[C@H]2C(=O)O[C@H]([C@H](C)C[C@@H]2CC[C@@H](OCCO)[C@H](OC)C2)CC(=O)[C@H](C)/C=C(\C)[C@@H](O)[C@@H](OC)C(=O)[C@H](C)C[C@H](C)/C=C/C=C/C=C/1C
UNIT ABBREV: h
Tmax: 3.23

###

- TEST: CNS penetration: total and unbound drug concentrations in tumor regions, CSF and plasma (LC-MS/MS, equilibrium dialysis);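 also: drug levels in patient tumor tissue from contrast-enhancing and non-enhancing regions sampled under MRI-guided neuronavigation, with plasma and CSF drawn during surgical resection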
- STUDY CONDITIONS: human, enhancing tumor and plasma, oral, 10 mg
ENDPOINT NAME: Kp at 120 h

COMPOUND SMILES: CO[C@H]1C[C@@H]2CC[C@@H](C)[C@@](O)(O2)C(=O)C(=O)N2CCCC[C@H]2C(=O)O[C@H]([C@H](C)C[C@@H]2CC[C@@H](OCCO)[C@H](OC)C2)CC(=O)[C@H](C)/C=C(\C)[C@@H](O)[C@@H](OC)C(=O)[C@H](C)C[C@H](C)/C=C/C=C/C=C/1C
VALUE MEASURED: 1.2

###

- TEST: Plasma pharmacokinetic parameters (LC-MS/MS)
- STUDY CONDITIONS: human, plasma, oral, 10 mg, AUClast, total everolimus plasma; median
ENDPOINT NAME: AUC(0-t) (µM·h)

COMPOUND: CO[C@H]1C[C@@H]2CC[C@@H](C)[C@@](O)(O2)C(=O)C(=O)N2CCCC[C@H]2C(=O)O[C@H]([C@H](C)C[C@@H]2CC[C@@H](OCCO)[C@H](OC)C2)CC(=O)[C@H](C)/C=C(\C)[C@@H](O)[C@@H](OC)C(=O)[C@H](C)C[C@H](C)/C=C/C=C/C=C/1C [Everolimus, everolimus]
VALUE MEASURED: 0.82
